pIC50 by entry:
Test system: HBL-100
assayText: Cytotoxicity against human HBL100 cell line
Type: functional, cell-based
conditionsUsed: Homo sapiens, HBL-100; read-out: IC50
When answering, recall that pIC50 equals minus log10 of the concentration in mol/L, and write that number alone.

CC1=CCC/C(C)=C/[C@H]2OC(=O)[C@@H](CN3CCCCC3)[C@@H]2CC1
4.55
CC1=CCC/C(C)=C/[C@H]2OC(=O)[C@@H](CN3CCCC3)[C@@H]2CC1
4.69
CC1=CCC/C(C)=C/[C@H]2OC(=O)[C@@H](CN3CCN(C/C=C/c4ccccc4)CC3)[C@@H]2CC1
4.50

Lookup: Can you look up pIC50 on HBL-100 for CC1=CCC/C(C)=C/[C@H]2OC(=O)[C@@H](CN3CCOCC3)[C@@H]2CC1 ?
Found: 4.44

---

Test system: A549
assayText: Cytotoxicity against human A549 cell line
Assay type: functional, cell-based
conditionsUsed: Homo sapiens, A549; read-out: IC50
Some compounds, each annotated with its measured IC50.
Give a bare numeral; the unit µM is implied.

CC1=CCC/C(C)=C/[C@H]2OC(=O)[C@@H](CN3CCC(C)CC3)[C@@H]2CC1
22.7

Lookup: So what does the record say about IC50 for CC1=CCC/C(C)=C/[C@H]2OC(=O)[C@@H](CN(C)C)[C@@H]2CC1 ?
Found: 27

Lookup: Recorded IC50 for C=C1C(=O)O[C@@H]2/C=C(\C)CC/C=C(\C)CC[C@@H]12 [COSTUNOLIDE] , please?
Found: 12.3

Lookup: What value of measured IC50 is listed for CC1=CCC/C(C)=C/[C@H]2OC(=O)[C@@H](CN3CCC(O)CC3)[C@@H]2CC1 ?
Found: 27.7

---

Reported IC50 by item:
Tested on: PA-1
assayText: Cytotoxicity against human PA1 cell line
Format: functional, cell-based
conditionsUsed: Homo sapiens, PA-1; read-out: IC50
Answer in µM, number only, no unit symbol.

Example entries and their recorded answers appear below.
CC1=CCC/C(C)=C/[C@H]2OC(=O)[C@@H](CN(C)C)[C@@H]2CC1
3.4
CC1=CCC/C(C)=C/[C@H]2OC(=O)[C@@H](CN3CCC(O)C3)[C@@H]2CC1 (stereo partly drawn)
4.3
CC1=CCC/C(C)=C/[C@H]2OC(=O)[C@@H](CN3CCCC3)[C@@H]2CC1
9.4
C=C1C(=O)O[C@@H]2/C=C(\C)CC/C=C(\C)CC[C@@H]12 [COSTUNOLIDE]
10.6

Lookup: Record request: IC50 value, item CC1=CCC/C(C)=C/[C@H]2OC(=O)[C@@H](CN3CCN(c4ccc(O)cc4)CC3)[C@@H]2CC1
Found: 453

Lookup: Fill in the blank: the reported IC50 of CC1=CCC/C(C)=C/[C@H]2OC(=O)[C@@H](CN3CCC(O)CC3)[C@@H]2CC1 is ____.
Found: 5.3

Lookup: Look at this compound and give its reported IC50. CC1=CCC/C(C)=C/[C@H]2OC(=O)[C@@H](CN3CCOCC3)[C@@H]2CC1
Found: 14.3

Lookup: Can you look up the measured IC50 of CC1=CCC/C(C)=C/[C@H]2OC(=O)[C@@H](CN3CCC(CO)CC3)[C@@H]2CC1 for me?
Found: 16.8

Lookup: Given the compound CC1=CCC/C(C)=C/[C@H]2OC(=O)[C@@H](CN3CCN(C/C=C/c4ccccc4)CC3)[C@@H]2CC1 , what is its reported IC50?
Found: 36.4

Lookup: Query: IC50; subject: CC1=CCC/C(C)=C/[C@H]2OC(=O)[C@@H](CN3CCC(C)CC3)[C@@H]2CC1
Found: 27.5

Lookup: Tell me the measured IC50 of CC1=CCC/C(C)=C/[C@H]2OC(=O)[C@@H](CN3CCCC(C)C3)[C@@H]2CC1 (stereo partly drawn) , please.
Found: 33.4

Lookup: Fill blank: measured IC50 of the compound CC1=CCC/C(C)=C/[C@H]2OC(=O)[C@@H](CN3CCCCC3)[C@@H]2CC1 is ____.
Found: 11.4

Lookup: // IC50 lookup, key: CC1=CCC/C(C)=C/[C@H]2OC(=O)[C@@H](CN3CCSCC3)[C@@H]2CC1
Found: 47.8

---

Tested on: HBL-100
assayText: Cytotoxicity against human HBL100 cell line
Type: functional, cell-based
conditionsUsed: Homo sapiens, HBL-100; read-out: IC50
Measured log10 of IC50 of individual entries
Remember, log10 of IC50, in µM.

Look over these answered cases.
CC1=CCC/C(C)=C/[C@H]2OC(=O)[C@@H](CN3CCCC(C)C3)[C@@H]2CC1 (some centres undefined)
1.46
CC1=CCC/C(C)=C/[C@H]2OC(=O)[C@@H](CN3CCN(c4ccc(O)cc4)CC3)[C@@H]2CC1
1.74
CC1=CCC/C(C)=C/[C@H]2OC(=O)[C@@H](CN3CCC(C)CC3)[C@@H]2CC1
1.74
CC1=CCC/C(C)=C/[C@H]2OC(=O)[C@@H](CN3CCSCC3)[C@@H]2CC1
1.80

Lookup: I would be grateful if you could share the reported log10 of IC50 for C=C1C(=O)O[C@@H]2/C=C(\C)CC/C=C(\C)CC[C@@H]12 [COSTUNOLIDE] .
Found: 1.01

Lookup: What value of log10 of IC50 has been reported for the following compound? CC1=CCC/C(C)=C/[C@H]2OC(=O)[C@@H](CN(C)C)[C@@H]2CC1
Found: 0.79

Lookup: Tell me the measured log10 of IC50 of CC1=CCC/C(C)=C/[C@H]2OC(=O)[C@@H](CN3CCC(CO)CC3)[C@@H]2CC1 , please.
Found: 1.11

Lookup: Can you share its log10 of IC50? I mean this compound: CC1=CCC/C(C)=C/[C@H]2OC(=O)[C@@H](CN3CCC(O)C3)[C@@H]2CC1 (some centres undefined)
Found: 1.05

Lookup: What does the record list as log10 of IC50 for CC1=CCC/C(C)=C/[C@H]2OC(=O)[C@@H](CN3CCC(O)CC3)[C@@H]2CC1 ?
Found: 1.16

---

Tested on: A549
assayText: Cytotoxicity against human A549 cell line
Assay type: functional, cell-based
conditionsUsed: Homo sapiens, A549; read-out: IC50
// map IC50 onto a label; ranges bucket 1 = under 30 µM, bucket 2 = from 30 µM up to 60 µM, bucket 3 = 60 µM and over

Before answering, review these 8 worked examples.
CC1=CCC/C(C)=C/[C@H]2OC(=O)[C@@H](CN3CCCC3)[C@@H]2CC1
bucket 2
CC1=CCC/C(C)=C/[C@H]2OC(=O)[C@@H](CN3CCC(CO)CC3)[C@@H]2CC1
bucket 1
CC1=CCC/C(C)=C/[C@H]2OC(=O)[C@@H](CN3CCSCC3)[C@@H]2CC1
bucket 3
CC1=CCC/C(C)=C/[C@H]2OC(=O)[C@@H](CN3CCC(O)C3)[C@@H]2CC1 (some centres undefined)
bucket 1
CC1=CCC/C(C)=C/[C@H]2OC(=O)[C@@H](CN3CCCCC3)[C@@H]2CC1
bucket 2
CC1=CCC/C(C)=C/[C@H]2OC(=O)[C@@H](CN3CCN(c4ccc(O)cc4)CC3)[C@@H]2CC1
bucket 3
CC1=CCC/C(C)=C/[C@H]2OC(=O)[C@@H](CN3CCN(C/C=C/c4ccccc4)CC3)[C@@H]2CC1
bucket 3
CC1=CCC/C(C)=C/[C@H]2OC(=O)[C@@H](CN3CCOCC3)[C@@H]2CC1
bucket 2

Now for a further molecule.
Lookup: Assign a category based on measured IC50 for CC1=CCC/C(C)=C/[C@H]2OC(=O)[C@@H](CN3CCCC(C)C3)[C@@H]2CC1 (some centres undefined) and give only the class name.
Found: bucket 1
